- TARGET SYSTEM: VB6PP (Sinorhizobium meliloti, UniProt A7BK78)
- Sequence (A7BK78 entry or part of it): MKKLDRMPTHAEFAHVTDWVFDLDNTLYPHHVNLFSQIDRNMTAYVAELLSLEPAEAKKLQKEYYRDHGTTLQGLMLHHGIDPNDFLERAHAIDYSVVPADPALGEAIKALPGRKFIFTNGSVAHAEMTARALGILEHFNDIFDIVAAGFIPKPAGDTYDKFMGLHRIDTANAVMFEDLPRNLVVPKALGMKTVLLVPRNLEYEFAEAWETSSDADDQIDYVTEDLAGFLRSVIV
- RUN DESCRIPTION: co-factor requirement of the enzyme to convert VB6P to vitamin B6 (standard enzyme assay)
- Assay type: biochemical
- COND: metal salt as co-factor; MnCl2 = 100
QUANTITY KIND: Relative activity (%)
Please don't drop the unit; write it after the number.

// sample [Cl][Ni][Cl] , its Relative activity (%) was 7%

// sample [Cl-].[Cl-].[Mg+2] , its Relative activity (%) was 88%

// sample [Cl][Mn][Cl] , its Relative activity (%) was 100%

// sample [Cl][Sn][Cl] , its Relative activity (%) was 11%

----------
Assign Relative activity (%) to each entry below.
- TARGET SYSTEM: VB6PP (Sinorhizobium meliloti)
- RUN DESCRIPTION: substrate specificity of the enzyme (phosphate release, malachite green method)
- Assay type: biochemical
- COND: substrate 160 μM final concentration; PNP = 100
- Experimental: After incubation for 30 minutes, the reaction mixture was cooled down into an ice bath. Activity was determined in the following two ways. […] One unit of the enzyme activity was defined as-the amount of enzyme synthesizing 1 μmole of vitamin B6 for 30 minutes in the assay system described above.
Number only, in %; omit the unit.

// sample Nc1ncnc2c1ncn2[C@@H]1O[C@H](COP(=O)(O)O)[C@@H](O)[C@H]1O [adenosine monophosphate] , its Relative activity (%) was 6

// sample O=C[C@H](O)[C@@H](O)[C@H](O)[C@H](O)COP(=O)(O)O [D-glucose 6-phosphate] , its Relative activity (%) was 0

// sample Nc1ncnc2c1ncn2[C@@H]1O[C@H](COP(=O)(O)OP(=O)(O)O)[C@@H](O)[C@H]1O [adenosine diphosphate] , its Relative activity (%) was 0

// sample Cc1ncc(COP(=O)(O)O)c(C=O)c1O [PLP, pyridoxal 5′-phosphate] , its Relative activity (%) was 40

// sample Cc1ncc(COP(=O)(O)O)c(CN)c1O [PMP, pyridoxamine 5′-phosphate] , its Relative activity (%) was 0.1

// sample O=C(O)COP(=O)(O)O , its Relative activity (%) was 0

// sample O=P(O)(O)Oc1cccc2ccccc12 [1-naphthyl phosphate] , its Relative activity (%) was 9

// sample N[C@@H](COP(=O)(O)O)C(=O)O , its Relative activity (%) was 0

// sample O=[N+]([O-])c1ccc(OP(=O)(O)O)cc1 [p-nitrophenyl phosphate] , its Relative activity (%) was 29

// sample Nc1ncnc2c1ncn2[C@@H]1O[C@H](COP(=O)(O)OP(=O)(O)OP(=O)(O)O)[C@@H](O)[C@H]1O [adenosine triphosphate] , its Relative activity (%) was 0

// sample O=C(O)C(O)COP(=O)(O)O (stereo not drawn) [D(−)3-phosphoglyceric acid] , its Relative activity (%) was 0
